This collection of values is drawn from ChEMBL document CHEMBL1127468.

target: UniProtKB P41144
Sequence (P41144 whole entry): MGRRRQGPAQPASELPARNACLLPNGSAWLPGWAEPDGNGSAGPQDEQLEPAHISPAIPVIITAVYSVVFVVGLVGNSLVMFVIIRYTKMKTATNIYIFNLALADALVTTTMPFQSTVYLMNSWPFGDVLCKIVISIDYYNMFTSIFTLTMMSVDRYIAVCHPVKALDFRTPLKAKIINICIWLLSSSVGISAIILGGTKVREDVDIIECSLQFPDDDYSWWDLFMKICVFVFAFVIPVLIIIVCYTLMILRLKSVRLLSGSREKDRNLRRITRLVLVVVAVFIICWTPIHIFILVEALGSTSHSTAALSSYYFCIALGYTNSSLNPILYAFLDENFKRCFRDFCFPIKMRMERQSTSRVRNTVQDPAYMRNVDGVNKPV
pKi: −log10 of the molar value.
VALUE_TYPE: pKi

- CN1CCC2(c3cccc(O)c3)CC(=O)/C(=C/c3ccc(Cl)c(Cl)c3)C1C2 (stereo not drawn): < 6.30
- CN1CC[C@@]2(c3cccc(O)c3)CC(=O)/C(=C/c3ccc(Cl)c(Cl)c3)[C@H]1C2: < 6.30
- CN1CC[C@@]2(c3cccc(O)c3)CC(=O)/C(=C/c3ccc(Cl)c(Cl)c3)[C@@H]1C2: < 6.30
